- Protocol: VP16 counterscreen qHTS for inhibitors of ROR gamma transcriptional activity;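 note: Gal4-VP16 expression switched on by copper sulfate through the metallothionein promoter; nearly all actives have a fitted effect of over 50% in size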; note: potency is the fitted concentration of half-maximal effect
- Reported conditions: Drosophila S2 Gal4-VP16 UAS-luciferase, luminescence, 20 h; series mostly up to 53.6 µM
Out of some 310,000 compounds screened, about 11,000 (3.5%) were called active. Another 8% or so got no clear call; they are omitted. What follows is part of a selection rich in actives, with near analogues and random picks from the rest.

>  <Molecule>
Cc1ccccc1NC(=S)NC(=O)Cc1ccc(Cl)cc1

>  <Potency>
7.08 µM (active)

$$$$
>  <Molecule>
S=C(NCc1cccnc1)Nc1ccc(Cl)cc1Cl

>  <Potency>
inactive

$$$$
>  <Molecule>
COC(=O)C1(CCSC)NC(c2ccc(OC)cc2OC)C2C(=O)N(c3cccc(C(C)=O)c3)C(=O)C21 (stereo unspecified)

>  <Potency>
inactive

$$$$
>  <Molecule>
COc1ccc(Cl)cc1CSc1ncn[nH]1

>  <Potency>
inactive

$$$$
>  <Molecule>
CCOC(=O)Cc1csc(NC(=O)CN(C)S(=O)(=O)c2ccc3c(c2)CCC(=O)N3)n1

>  <Potency>
11.2 µM (active)

$$$$
>  <Molecule>
CC(Cc1cccs1)N(Cc1ccc(Cl)cc1)C(=O)c1ccncc1 (stereo unspecified)

>  <Potency>
inactive

$$$$
>  <Molecule>
CCOC(=O)Cc1csc(NC(=O)CSc2nc(C)cc(=O)[nH]2)n1

>  <Potency>
inactive

$$$$
>  <Molecule>
Cc1cc(S(=O)(=O)NCc2ccccn2)c(Cl)cc1Cl

>  <Potency>
5.62 µM (active)

$$$$
>  <Molecule>
O=S(=O)(NCc1ccccn1)c1ccc(F)cc1

>  <Potency>
inactive

$$$$
>  <Molecule>
O=C(NCCOCc1ccc(Cl)cc1)c1ncn[nH]1

>  <Potency>
inactive

$$$$
>  <Molecule>
CCC(C)(C)NC(=O)CN(C(=O)CCC(=O)Nc1nccs1)c1ccc2c(c1)OCO2

>  <Potency>
inactive

$$$$

These data points were gathered from PubChem BioAssay AID2546.
